- assay remarks: chemical genetic growth profiling, strain panel (AID 1159580);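 further: tested at 20 µM; growth read once vehicle control cultures reached saturation at 30 °C; 1 = growth at the plate median or of vehicle wells; lower values mean less growth of the strain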
- condition info: S. cerevisiae deletion strains, growth OD, locus YGL167C, strain pmr1, hits give low values
Hit rate of the full screen: of about 5,500 compounds, about 2,000 (36%) were called active. Roughly 18% stayed inconclusive and do not appear here. The list shows a part of the results.
Measured normalized growth of individual entries
property name: normalized growth

1. COP(=O)(OC)OC=C(Cl)Cl = 0.994
2. CN(C)CC/C=C1\c2ccccc2Sc2ccc(Cl)cc21 = 0.997
3. COc1ccc2c3c1O[C@H]1C[C@@H](O)C=C[C@@]31CCN(C)C2 = 0.997

====

Measured normalized growth of individual entries
- assay remarks: chemical genetic growth profiling, strain panel (AID 1159580)
- condition info: S. cerevisiae deletion strains, growth OD, locus YNL322C, strain KRE1 (second series), hits give low values
Among all 5,500 compounds or so, about 2,000 (36%) were called active. Inconclusive results (about 18%) are left out. The list shows a part of the results.
property name: normalized growth

1) COCCc1ccc(OCC(O)CNC(C)C)cc1 (centres undefined) = 0.98
2) CC(Oc1ccccc1)C(=O)N[C@@H]1C(=O)N2[C@@H]1SC(C)(C)[C@@H]2C(=O)O (some centres undefined) = 1.01
3) CC1(C)OC(=O)NC1=O = 1.01
4) CCN(CC)CCCC(C)Nc1c2ccc(Cl)cc2nc2ccc(OC)cc12 (centres undefined) = 1.01
5) COc1cc2c(cc1OC)[C@@H]1C(=O)c3ccc4oc(C(C)C)cc4c3O[C@@H]1CO2 = 1
6) CCN(CCO)CCCC(C)Nc1ccnc2cc(Cl)ccc12 (centres undefined) = 1
7) S=c1nc[nH]c2nc[nH]c12 = 1.02
8) CN[C@@H](C)[C@@H](O)c1ccccc1 = 0.977
9) CC(CCc1ccccc1)NC(C)C(O)c1ccc(O)cc1 (centres undefined) = 1.01
10) COc1cc(NS(=O)(=O)c2ccc(N)cc2)nc(OC)n1 = 0.976
11) c1ccc(N=Nc2ccccc2)cc1 = 0.974
12) COc1ccc2cc([C@H](C)CO)ccc2c1 = 1.01
13) CCOC(=O)CCC(=O)O[C@H]1[C@H](O[C@@H]2[C@@H](C)[C@H](O[C@H]3C[C@@](C)(OC)[C@@H](O)[C@H](C)O3)[C@@H](C)C(=O)O[C@H](CC)[C@@](C)(O)[C@H](O)[C@@H](C)C(=O)[C@H](C)C[C@@]2(C)O)O[C@H](C)C[C@@H]1N(C)C = 0.988
14) CC1=C(C/C=C(\C)CCC[C@H](C)CCC[C@H](C)CCCC(C)C)C(=O)c2ccccc2C1=O = 0.998

====

- assay remarks: chemical genetic growth profiling, strain panel (AID 1159580)
- condition info: S. cerevisiae deletion strains, growth OD, locus YKR001C, strain vps1, hits give low values
About 2,000 (36%) of roughly 5,500 compounds were called active. Another 18% or so got no clear call; they are omitted. The list shows a part of the results.
property name: normalized growth

1) CC1=C(CC(=O)O)c2cc(F)ccc2/C1=C\c1ccc(S(C)=O)cc1 (stereo not given) = 0.997
2) CCOC(=O)c1c(C)cc(O)c(C=O)c1O = 0.103
3) COc1ccc(OC)c(C(O)C(C)N)c1 (stereo not given) = 1
4) C=C(C)[C@@H]1[C@H]2OC(=O)[C@@H]1[C@]1(O)C[C@H]3O[C@]34C(=O)O[C@H]2[C@]14C = 1.01
5) COC1=CC(=O)C[C@@H](C)[C@]12Oc1c(Cl)c(OC)cc(OC)c1C2=O = 0.995

====

- assay remarks: chemical genetic growth profiling, strain panel (AID 1159580)
- condition info: S. cerevisiae deletion strains, growth OD, locus YNL298W, strain CLA4 (second series)
Screen size: about 5,500 compounds; about 2,000 (36%) were called active. About 18% were inconclusive and are not listed. Rule as the data show it: active = normalized growth mostly below about 0.91 (no sharp cut-off); inconclusive = no clear call, values can overlap the other calls; inactive = mostly above about 0.92. Some of the results follow.
Possible outcomes: class 1 = active, class 0 = inactive

1. CC1=C(OS(=O)(=O)c2cc(C)c(Cl)cc2Cl)C(=O)CC1 = class 0
2. COc1cc(/C=C2\NC(=O)NC2=O)ccc1O = class 0
3. CCCS(=O)(=O)c1c(C)c(C)n(Cc2ccccc2)c1N = class 0
4. CCOC(=O)C1CCN(C(=S)Nc2ccccc2C(F)(F)F)CC1 = class 0
5. Cc1cccc(Cn2c(C)c(C)c(S(=O)(=O)c3ccccc3)c2N)c1C = class 0
6. COc1ccc(S(=O)(=O)Nc2ccccc2Oc2ccc(Cl)cc2Cl)cc1OC = class 0
7. Clc1cccc(Cl)c1CSC1=NCCCN1C1CCCCC1 = class 0
8. COc1ccccc1N1CCN(S(=O)(=O)c2cc(C)c(Cl)cc2C)CC1 = class 0
9. Cc1ccc(NC(=S)NNC(C)(C)C)cc1 = class 1
10. CCOC(=O)CSC(=S)NCc1ccc(C)cc1 = class 1
11. COc1ccc(C2=C(C(C)=O)C(C)=NC(=S)C2C#N)cc1 (stereo unspecified) = class 0

====

- assay remarks: chemical genetic growth profiling, strain panel (AID 1159580);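 further: tested at 20 µM; growth read once vehicle control cultures reached saturation at 30 °C; 1 = growth at the plate median or of vehicle wells; lower values mean less growth of the strain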
- condition info: S. cerevisiae deletion strains, growth OD, locus YNL128W, strain TEP1, hits give low values
Hit rate of the full screen: of about 5,500 compounds, about 2,000 (36%) were called active. Not shown: some 18% with an inconclusive outcome. The list shows a part of the results.
Measured normalized growth of individual entries
property name: normalized growth

1) COc1ccc2cc([C@H](C)CO)ccc2c1 = 0.979
2) CN1CCC(=C2c3ccccc3Sc3ccccc32)CC1 = 1.01
3) CC1CC2C3CCC4=CC(=O)C=C[C@]4(C)[C@@]3(F)[C@@H](O)C[C@]2(C)[C@@]1(O)C(=O)CO (some centres not stated) = 0.973
4) c1ccc(N=Nc2ccc(Nc3ccccc3)cc2)cc1 = 0.913
5) CNC(=O)[C@H]1O[C@@H](n2cnc3c(N)ncnc32)C(O)[C@H]1O (some centres not stated) = 0.983
6) CCC(C)C(=O)O[C@H]1[C@H](O)C2C(CN3CC(C)CCC3[C@@]2(C)O)C2C[C@]34O[C@]5(O)C(OC(=O)C(C)(O)C(C)O)CC[C@@]3(C)C5C(OC(C)=O)[C@@H](OC(C)=O)C4[C@@]21O (some centres not stated) = 1.02
7) CC(C(=O)O)c1cccc(Oc2ccccc2)c1 (configuration not stated) = 0.966
8) O=C(CSc1nnnn1-c1ccccc1)NC1Cc2ccccc2C1 = 1
9) NC(=O)c1ccc[n+]([C@@H]2O[C@H](COP(=O)([O-])OP(=O)(O)OC[C@H]3O[C@@H](n4cnc5c(N)ncnc54)[C@H](O)[C@@H]3O)[C@@H](O)[C@H]2O)c1 = 0.953
10) CP(=O)(O)C1=CCNCC1 = 0.996
11) O=C1NCN(c2ccccc2)C12CCN(CC1COc3ccccc3O1)CC2 (configuration not stated) = 1.04
12) CCOC(=O)C(C)(C)Oc1ccc(Cl)cc1 = 1.01
13) CC1(C)C(C=C(Cl)Cl)C1C(=O)OC(C#N)c1cccc(Oc2ccccc2)c1 (configuration not stated) = 1
14) CC[C@H]1OC(=O)[C@H](C)[C@@H](O[C@H]2C[C@@](C)(OC)[C@@H](O)[C@H](C)O2)[C@H](C)[C@@H](O[C@@H]2O[C@H](C)C[C@H](N(C)C)[C@H]2O)[C@](C)(O)C[C@@H](C)CN(C)[C@H](C)[C@@H](O)[C@]1(C)O = 1
15) COc1ccc2c(c1OC)C(=O)O[C@H]2[C@H]1c2cc3c(cc2CCN1C)OCO3 = 0.984
16) C[N+](C)(C)CCOC(N)=O = 0.971
17) CS(=O)(=O)c1ccc(C2=C(c3ccccc3)C(=O)OC2)cc1 = 0.985

====

- assay remarks: chemical genetic growth profiling, strain panel (AID 1159580);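 further: tested at 20 µM; growth read once vehicle control cultures reached saturation at 30 °C; 1 = growth at the plate median or of vehicle wells; lower values mean less growth of the strain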
- condition info: S. cerevisiae deletion strains, growth OD, locus YLR418C, strain cdc73, hits give low values
Hit rate of the full screen: of about 5,500 compounds, about 2,000 (36%) were called active. Inconclusive results (about 18%) are left out. The list shows a part of the results.
Measured normalized growth of individual entries
property name: normalized growth

1) C[C@H]1OC(n2cc(F)c(=O)[nH]c2=O)C(O)[C@@H]1O (stereo partly specified) = 1.05
2) O=C(O)c1c2ccccc2cc2ccccc12 = 0.96
3) COc1cc2c(cc1OC)C1C(=O)c3c(OC)cc4c(c3OC1CO2)CCC(C)(C)O4 (stereo unspecified) = 1
4) COc1cc2c(cc1OC)[C@@H]1C(=O)c3ccc(O)c(CC=C(C)C)c3O[C@@H]1CO2 = 1
5) c1cncc(C2CCCCN2)c1 (stereo unspecified) = 0.995
6) COc1ccc(OC)c(C(O)C(C)N)c1 (stereo unspecified) = 1.02

====

- assay remarks: chemical genetic growth profiling, strain panel (AID 1159580);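 further: tested at 20 µM; growth read once vehicle control cultures reached saturation at 30 °C; 1 = growth at the plate median or of vehicle wells; lower values mean less growth of the strain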
- condition info: S. cerevisiae deletion strains, growth OD, locus YDR335W, strain msn5, hits give low values
The campaign covered roughly 5,500 compounds. About 2,000 (36%) were called active. Not shown: some 18% with an inconclusive outcome. The list shows a part of the results.
Measured normalized growth of individual entries
property name: normalized growth

1) CC(C)OC(=O)C(C)(C)Oc1ccc(C(=O)c2ccc(Cl)cc2)cc1 = 0.977
2) COc1cc2c(cc1OC)[C@@H]1C(=O)c3ccc(O)c(CC=C(C)C)c3O[C@@H]1CO2 = 1.02
3) COc1cc(NS(=O)(=O)c2ccc(N)cc2)nc(OC)n1 = 0.981
4) CC(Oc1ccccc1)C(=O)N[C@@H]1C(=O)N2[C@@H]1SC(C)(C)[C@@H]2C(=O)O (some centres undefined) = 0.996
5) COc1ccc2c3c1O[C@H]1C[C@@H](O)C=C[C@@]31CCN(C)C2 = 1.02
6) C[C@]12CCC(=O)C=C1CCC1C2CC[C@@]2(C)C1CC[C@@H]2O (some centres undefined) = 0.989
7) ClC1=C(Cl)C2(Cl)C3C(Cl)C=CC3C1(Cl)C2(Cl)Cl (centres undefined) = 1.01
8) COc1cc2c(cc1OC)[C@@H]1C(=O)c3ccc4oc(C(C)C)cc4c3O[C@@H]1CO2 = 0.986
9) CC(C)(O)[C@@H]1[C@H]2OC(=O)[C@@H]1[C@]1(O)C[C@H]3O[C@]34C(=O)O[C@H]2[C@]14C = 1
10) C=C1C2CC[C@H]3[C@]4(C)C[C@H](OC5OC(CO)C(OS(=O)(=O)O)C(OS(=O)(=O)O)C5OC(=O)CC(C)C)C[C@@H](C(=O)O)[C@H]4CC[C@]3(C2)[C@H]1O (some centres undefined) = 1.01
11) CCOC(=O)C(Cc1ccc(O)cc1)NC(C)=O (centres undefined) = 1.01
12) COc1ccc2c(c1OC)C(=O)O[C@@H]2[C@H]1c2cc3c(cc2CCN1C)OCO3 = 0.989
13) CC(=O)N[C@@H](CC(C)C)C(=O)O = 0.987
14) C[C@H]1CC2C([C@@H](O)C[C@@]3(C)C2CC[C@]3(O)C(=O)CO)[C@@]2(C)C=CC(=O)C=C12 (some centres undefined) = 1
15) CO[C@H]1[C@H](O)[C@H](O[C@H]2CC[C@]3(C)C4CC[C@]5(C)C(C6=CC(=O)OC6)CC[C@]5(O)C4CC[C@@H]3C2)O[C@@H](C)[C@@H]1O (some centres undefined) = 1.01
16) CCN(CC)CCNC(=O)c1cc(Br)c(N)cc1OC = 0.987
17) CC1CC2C3CCC4=CC(=O)C=C[C@]4(C)[C@@]3(F)[C@@H](O)C[C@]2(C)[C@@]1(O)C(=O)CO (some centres undefined) = 0.984
18) Cc1cc(O)c(C=O)c(O)c1C(=O)O = 0.991
19) CC1CC2C3CC(F)C4=CC(=O)C=CC4(C)C3(F)C(O)CC2(C)C1(O)C(=O)CO (centres undefined) = 1
20) CC1=C(C(C)O)C2=NC1C=c1[nH]c(c(C)c1C(C)O)=Cc1[nH]c(c(CCC(=O)O)c1C)C=c1[nH]c(c(C)c1CCC(=O)O)=C2 (centres undefined) = 1
21) CC1(C)OC(=O)NC1=O = 1.02
22) CC(=O)O[C@@H]1C[C@@]2(C)C(CC[C@@H]2C(C)=O)C2CCC3=CC(=O)CC[C@]3(C)C21 (some centres undefined) = 1
23) CC1=C(CC(=O)O)c2cc(F)ccc2/C1=C\c1ccc(S(C)=O)cc1 (centres undefined) = 1.01
24) O=C(O)c1cc2ccccc2c(Cc2c(O)c(C(=O)O)cc3ccccc23)c1O = 1.01
